- Assay overview: Oral bioavailability in rat at 10 mg/kg
- Format: ADME, organism-based
- Assay conditions: in vivo
Measurement name: bioavailability (%)

1 = O=C(CNc1ncnc2ccc(C(F)(F)F)cc12)NC1CN([C@H]2CC[C@@](O)(c3cncs3)CC2)C1
2 = N#Cc1cc(NCC(=O)NC2CN([C@H]3CC[C@@](O)(c4cncs4)CC3)C2)c2cc(C(F)(F)F)ccc2n1
Req: Could you point out whether the larger bioavailability belongs to 1 or to 2 ? Refer to your chosen entry by its label in the reply.
Resp: 2
(2: 0.5%, 1: 0.3%)
